B1: LINE1-full (parent)
chain: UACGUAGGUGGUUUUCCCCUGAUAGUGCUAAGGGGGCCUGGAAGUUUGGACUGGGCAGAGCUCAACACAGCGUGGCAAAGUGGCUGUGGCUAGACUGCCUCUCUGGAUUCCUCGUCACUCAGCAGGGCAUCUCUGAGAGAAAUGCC

Variants of: B1
Assay: self-cleavage, relative activity (ratio to wild type); higher = more cleavage; in vitro, sequencing; the parent is a self-cleaving ribozyme
Collected self-cleavage values appear next to each entry.
Just the number.

Per the records, this variant ( U109G A138U ) has self-cleavage equal to 1.07

Per the records, this variant ( U45C U96C ) has self-cleavage equal to 0.12

Per the records, this variant ( U26C A65G ) has self-cleavage equal to 0.13

Per the records, this variant ( A124G G139A ) has self-cleavage equal to 1.84

Per the records, this variant ( C3U G93A ) has self-cleavage equal to 0

Per the records, this variant ( A43G U132C ) has self-cleavage equal to 1.1

Continuing:
Per the records, this variant ( U13C A64G ) has self-cleavage equal to 0.35

Per the records, this variant ( A79G U143C ) has self-cleavage equal to 1.47

Per the records, this variant ( U46A U52A ) has self-cleavage equal to 1.87

Per the records, this variant ( G75C A142G ) has self-cleavage equal to 0.85

Per the records, this variant ( A92U U134A ) has self-cleavage equal to 0.52

Per the records, this variant ( U45C C146A ) has self-cleavage equal to 1.56

Per the records, this variant ( U87C U102A ) has self-cleavage equal to 0.12

Per the records, this variant ( U20C C37U ) has self-cleavage equal to 1.33
